pIC50: −log10 of the molar value.
List of pIC50 tested on hLXRa (Homo sapiens).
Sequence (Q13133 whole entry): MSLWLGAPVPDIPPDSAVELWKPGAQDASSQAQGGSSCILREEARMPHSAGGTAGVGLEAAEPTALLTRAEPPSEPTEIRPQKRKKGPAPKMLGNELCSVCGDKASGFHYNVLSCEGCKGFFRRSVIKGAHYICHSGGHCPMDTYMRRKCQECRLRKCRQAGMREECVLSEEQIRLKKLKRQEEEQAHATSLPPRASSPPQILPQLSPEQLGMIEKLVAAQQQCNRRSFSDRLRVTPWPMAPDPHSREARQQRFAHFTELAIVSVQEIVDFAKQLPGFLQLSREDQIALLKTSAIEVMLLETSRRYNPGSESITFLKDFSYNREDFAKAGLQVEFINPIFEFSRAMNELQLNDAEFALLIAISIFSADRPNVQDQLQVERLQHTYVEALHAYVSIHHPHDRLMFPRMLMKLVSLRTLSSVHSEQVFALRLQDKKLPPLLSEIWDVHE
Endpoint: pIC50

Look over these answered cases.
CC(C)c1cnc2c(Cl)cccc2c1-c1cccc(OC(=O)c2cccc(S(=O)(=O)N3CCOCC3)c2)c1
6.69
Cc1cnc2c(C(F)(F)F)cccc2c1-c1cccc(OC(=O)c2cccc(S(C)(=O)=O)c2)c1
7.88
Cc1cnc2c(Cl)cccc2c1-c1cccc(OC(=O)c2cccc(S(C)(=O)=O)c2)c1
7.77
CCc1cnc2c(C(F)(F)F)cccc2c1-c1cccc(OC(=O)c2cccc(S(C)(=O)=O)c2)c1
8.40
Cc1cnc2c(C(F)(F)F)cccc2c1-c1cccc(OC(=O)c2ccc(S(C)(=O)=O)cc2)c1
6.81
CC(C)c1cnc2c(Cl)cccc2c1-c1cccc(OC(=O)c2cccc(S(C)(=O)=O)c2)c1
8.36
CS(=O)(=O)c1cccc(C(=O)Oc2cccc(-c3ccnc4c(C(F)(F)F)cccc34)c2)c1
6.92
CC(C)c1cnc2c(Cl)cccc2c1-c1cccc(OC(=O)c2cccc(S(=O)(=O)N(C)C)c2)c1
7.82

A = Cc1cnc2c(C(F)(F)F)cccc2c1-c1cccc(C(=O)Oc2cccc(S(C)(=O)=O)c2)c1
B = CCS(=O)(=O)c1cccc(C(=O)Oc2cccc(-c3c(C)cnc4c(C(F)(F)F)cccc34)c2)c1
C = CCCc1cnc2c(C(F)(F)F)cccc2c1-c1cccc(OC(=O)c2cccc(S(C)(=O)=O)c2)c1
D = Cc1ccc(S(C)(=O)=O)cc1C(=O)Oc1cccc(-c2c(C(C)C)cnc3c(C(F)(F)F)cccc23)c1
Please list the entries, largest pIC50 first. Please respond by ranking the labels in the order requested.
C, D, B, A

====

Recorded EC50, one value per entry.
System: ABCG1
Experiment: Gene regulation by LXR: ABCG1, human foreskin fibroblasts (serum-free)
Type: cell-based
Settings: Fibroblast
Reply with just the number (in nM).

Look over these answered cases.
CC(C)c1cnc2c(Cl)cccc2c1-c1cccc(OC(=O)c2ccc(S(=O)(=O)N(C)C)cc2)c1
78
CC(C)c1cnc2c(C(F)(F)F)cccc2c1-c1cccc(OC(=O)c2cccc(S(C)(=O)=O)c2)c1
41
CC(C)c1cnc2c(Cl)cccc2c1-c1cccc(OC(=O)c2cccc(S(=O)(=O)N(C)C)c2)c1
55
Cc1cnc2c(C(F)(F)F)cccc2c1-c1cccc(OC(=O)c2cccc(S(=O)(=O)N(C)C)c2)c1
250
Cc1ccc(S(=O)(=O)N(C)C)cc1C(=O)Oc1cccc(-c2c(C)cnc3c(C(F)(F)F)cccc23)c1
162
CC(C)c1cnc2c(C(F)(F)F)cccc2c1-c1cccc(OC(=O)c2ccc(S(C)(=O)=O)cc2)c1
38
CS(=O)(=O)c1cccc(C(=O)Oc2cccc(-c3ccnc4c(C(F)(F)F)cccc34)c2)c1
634
Cc1ccc(S(=O)(=O)N(C)C)cc1C(=O)Oc1cccc(-c2c(C(C)C)cnc3c(C(F)(F)F)cccc23)c1
58

Given item Cc1ccc(S(=O)(=O)N2CCOCC2)cc1C(=O)Oc1cccc(-c2c(C(C)C)cnc3c(Cl)cccc23)c1 , the value recorded as its EC50 is 44

Given item CS(=O)(=O)c1cccc(C(=O)Oc2cccc(-c3c(Cc4ccccc4)cnc4c(C(F)(F)F)cccc34)c2)c1 , the value recorded as its EC50 is 16

Given item Cc1cnc2c(C(F)(F)F)cccc2c1-c1cccc(OC(=O)c2ccc(S(C)(=O)=O)cc2)c1 , the value recorded as its EC50 is 250

Given item CCS(=O)(=O)c1cccc(C(=O)Oc2cccc(-c3c(C(C)C)cnc4c(Cl)cccc34)c2)c1 , the value recorded as its EC50 is 59

Given item Cc1cnc2c(C(F)(F)F)cccc2c1-c1cccc(OC(=O)c2cc(S(C)(=O)=O)ccc2Cl)c1 , the value recorded as its EC50 is 67

Given item Cc1cnc2c(C(F)(F)F)cccc2c1-c1cccc(OC(=O)c2cccc(S(C)(=O)=O)c2)c1 , the value recorded as its EC50 is 105

Given item CS(=O)(=O)c1cccc(C(=O)Oc2cccc(-c3c(-c4ccccc4)cnc4c(C(F)(F)F)cccc34)c2)c1 , the value recorded as its EC50 is 9.9
